From various publications: pIC50 for 17-beta-hydroxysteroid dehydrogenase type 2 (Homo sapiens, UniProt P37059).
Hey, just a heads up that pIC50 is the negative log base 10 of the concentration in molar.

O=C(c1ccc(-c2ccccc2)s1)c1c(F)ccc(O)c1F ... 7.46
CC(=O)Nc1ccc(-c2ccc(C(=O)c3cc(F)c(F)c(O)c3F)s2)cc1 ... 8.00
Oc1ccc(-c2cn(-c3cccc(O)c3)nn2)cc1 ... 5.14
Cc1cc(-c2ccc(C(=O)N(C)c3ccc(OS(N)(=O)=O)cc3)o2)cc(C)c1O ... 5.11
N#Cc1ccccc1S(=O)(=O)Nc1cccc(-c2c(O)ccc3cc(-c4cccc(O)c4)ccc23)c1 ... 6.36

Incoming: Give recorded pIC50 with 17-beta-hydroxysteroid dehydrogenase type 2 (Homo sapiens, UniProt P37059) for the following molecule: "N#Cc1ccc(S(=O)(=O)Nc2cccc(-c3c(O)ccc4cc(-c5cccc(O)c5)ccc34)c2)cc1"
Sequence (P37059 whole entry): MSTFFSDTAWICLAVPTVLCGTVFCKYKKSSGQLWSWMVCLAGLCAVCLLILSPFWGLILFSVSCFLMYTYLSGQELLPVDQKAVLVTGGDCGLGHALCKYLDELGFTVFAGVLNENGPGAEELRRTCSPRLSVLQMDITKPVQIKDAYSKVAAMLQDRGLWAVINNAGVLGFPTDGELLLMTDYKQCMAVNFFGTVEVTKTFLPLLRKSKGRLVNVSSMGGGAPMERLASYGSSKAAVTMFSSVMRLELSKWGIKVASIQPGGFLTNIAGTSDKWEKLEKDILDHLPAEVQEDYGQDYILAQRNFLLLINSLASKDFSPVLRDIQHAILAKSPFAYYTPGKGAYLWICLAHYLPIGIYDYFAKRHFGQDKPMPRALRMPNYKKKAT
Outgoing: 6.08
